Cited source: patent US20180008612A1

Give measured Total Impurity Amount % for each item. Keep answers brief.
assay.info: Antioxidant effect on galantamine stability under normal and stress conditions
Assay type: physicochemical
experimental.setup: galantamine with the antioxidant (label); 80′C-1 D
Give bare numbers, in %.

The cases that follow already have their Total Impurity Amount % on record.
compound	measure.unit	Total Impurity Amount %
O=S([O-])S(=O)(=O)[O-].[Na+].[Na+] [Sodium metabisulfite, sodium metabisulfite]	%	0.14
Cc1cc(C(C)(C)C)c(O)c(C(C)(C)C)c1 [Butylated Hydroxytoluene (BHT), butylated hydroxytoluene]	%	0.51
O=[N+]([O-])C(Br)(CO)CO [Bronopol, bronopol]	%	0.69
OCC(O)CS (stereo not drawn) [Monothioglycerol, monothioglycerol]	%	0.51
O=S=O [Sulfur Dioxide, sulfur dioxide]	%	0.54

Would you kindly look at the next entry?
Req: What does the record list as Total Impurity Amount % for CCCCCCCCCCCCCCCC(=O)OC[C@H](O)[C@H]1OC(=O)C(O)=C1O [Ascorbyl Palmitate, ascorbyl palmitate] ?
Resp: 0.28

###

Give measured Total Impurity Amount % for each item. Keep answers brief.
assay.info: Antioxidant effect on galantamine stability under normal and stress conditions
Format: physicochemical
experimental.setup: galantamine with the antioxidant (label); 25′C
Numbers only, in %.

The cases that follow already have their Total Impurity Amount % on record.
compound	observed
O=C1O[C@H]([C@H](O)CO)C(O)=C1O [Erythorbic Acid, erythorbic acid]	0.50
O=[N+]([O-])C(Br)(CO)CO [Bronopol, bronopol]	0.18

For the 3 compounds below, give their Total Impurity Amount % values.
1. Cc1cc(C(C)(C)C)c(O)c(C(C)(C)C)c1 [Butylated Hydroxytoluene (BHT), butylated hydroxytoluene]
2. O=S=O [Sulfur Dioxide, sulfur dioxide]
3. CCCCCCCCCCCCCCCC(=O)OC[C@H](O)[C@H]1OC(=O)C(O)=C1O [Ascorbyl Palmitate, ascorbyl palmitate]

Resp:
1. 0.11
2. 0.16
3. 0.12

For the 2 compounds below, give their Total Impurity Amount % values.
1. O=S([O-])[O-].[Na+].[Na+] [Sodium Sulfite, sodium sulfite]
2. O=S([O-])S(=O)(=O)[O-].[Na+].[Na+] [Sodium metabisulfite, sodium metabisulfite]

Resp:
1. 0.14
2. 0.17

Req: What does the record list as Total Impurity Amount % for OCC(O)CS (centres unmarked) [Monothioglycerol, monothioglycerol] ?
Resp: 0.16

###

assay.info: Antioxidant effect on galantamine stability under normal and stress conditions
Type: physicochemical
experimental.setup: galantamine with the antioxidant (label); 60′C-14 D
Just a reminder that ties go to Not fulfilled: only Total Impurity Amount % strictly below 0.6% counts as Fulfilled.

Reference set (3 entries):
compound	discrete.label
O=[N+]([O-])C(Br)(CO)CO	Not fulfilled
O=S=O [Sulfur Dioxide, sulfur dioxide]	Not fulfilled
OCC(O)CS (stereo not drawn)	Not fulfilled

Req: Consider the compound CCCCCCCCCCCCCCCC(=O)OC[C@H](O)[C@H]1OC(=O)C(O)=C1O [Ascorbyl Palmitate, ascorbyl palmitate] . Is its Total Impurity Amount % strictly less than 0.6%?
Resp: Fulfilled

Req: Same lookup for Cc1cc(C(C)(C)C)c(O)c(C(C)(C)C)c1 [Butylated Hydroxytoluene (BHT), butylated hydroxytoluene] , please.
Resp: Fulfilled

Req: Same lookup for O=S([O-])S(=O)(=O)[O-].[Na+].[Na+] [Sodium metabisulfite, sodium metabisulfite] , please.
Resp: Fulfilled
